# targetUnderTest: HLA-B*15:01
# assay: IEDB peptide-MHC binding, purified MHC/direct/fluorescence; filed as Kd, often an IC50 or EC50 that approximates it; bounds were set here for any values at or beyond the usual limits of such assays
# experimentalConditions: source organism: SARS-CoV1
readoutKind: Kd

Would you kindly share the measured Kd for KSYEHQTPF ?
169 nM

###

# targetUnderTest: HLA-A*02:03
# assay: IEDB peptide-MHC binding, purified MHC/direct/fluorescence; filed as Kd, often an IC50 or EC50 that approximates it; bounds were set here for any values at or beyond the usual limits of such assays
# experimentalConditions: source organism: Yersinia pestis CA88-4125
readoutKind: Kd

Fill blank: measured Kd of the sequence KLLARFLFE is ____.
≥ 20 µM

###

# targetUnderTest: HLA-B*58:01
# assay: IEDB peptide-MHC binding, purified MHC/direct/fluorescence; filed as Kd, often an IC50 or EC50 that approximates it; bounds were set here for any values at or beyond the usual limits of such assays
# experimentalConditions: source organism: Campylobacter jejuni RM1221
pKd: −log10 of the molar value.
readoutKind: pKd

Return reported pKd; argument: ALIVAIWDK
≤ 4.70

###

# targetUnderTest: HLA-C*14:02
# assay: IEDB peptide-MHC binding, purified MHC/direct/fluorescence; filed as Kd, often an IC50 or EC50 that approximates it; bounds were set here for any values at or beyond the usual limits of such assays
# experimentalConditions: source organism: Entamoeba histolytica HM-1:IMSS
readoutKind: Kd
Returns: string containing the number followed by the unit.

Dear colleague, I am looking for the recorded Kd of the following sequence: SWLYNYFVF
438 nM

###

# targetUnderTest: HLA-B*18:01
# assay: IEDB peptide-MHC binding, purified MHC/competitive/radioactivity; filed as Kd, often an IC50 or EC50 that approximates it; bounds were set here for any values at or beyond the usual limits of such assays
# experimentalConditions: source organism: Mammarenavirus lassaense
readoutKind: Kd (nM)
Report the value in nM with no unit label.

What does the data say about its Kd? Entry: DEILLDGGAS
70

###

# targetUnderTest: HLA-B*08:01
# assay: IEDB peptide-MHC binding, purified MHC/direct/fluorescence; filed as Kd, often an IC50 or EC50 that approximates it; bounds were set here for any values at or beyond the usual limits of such assays
# experimentalConditions: source organism: Influenza A virus (A/turkey/NC/17026/1988(H1N1))
readoutKind: Kd

Tell me the measured Kd of VSFDQNLDY , please.
≥ 20 µM

###

# targetUnderTest: HLA-A*03:01
# assay: IEDB peptide-MHC binding, purified MHC/competitive/fluorescence; bounds were set here for any values at or beyond the usual limits of such assays
# experimentalConditions: source organism: Vaccinia virus Copenhagen
readoutKind: IC50

Can you look up IC50 on HLA-A*03:01 for ALKKLIIDR ?
≥ 83.2 µM

###

# targetUnderTest: HLA-A*24:03
# assay: IEDB peptide-MHC binding, purified MHC/competitive/fluorescence; filed as Kd, often an IC50 or EC50 that approximates it; bounds were set here for any values at or beyond the usual limits of such assays
# experimentalConditions: source organism: Bacillus anthracis str. A2012
readoutKind: Kd (nM)
Respond with the bare value in nM.

Which measured Kd value corresponds to RAFSLYMTL ?
58.6

###

# targetUnderTest: HLA-A*32:01
# assay: IEDB peptide-MHC binding, purified MHC/competitive/radioactivity; filed as Kd, often an IC50 or EC50 that approximates it; bounds were set here for any values at or beyond the usual limits of such assays
# experimentalConditions: source organism: Dengue virus 2 Peru/IQT2913/1996
readoutKind: pKd
Just the number, please; pKd means minus log10 of the concentration in mol/L.

Item KSYAQMWSL has what recorded pKd?
8.20

Where do the numbers come from? From the Immune Epitope Database (IEDB).
